- ASSAY_SYSTEM: T1, Soluble CTLA-4-Ig (extracellular domain of human CTLA-4 fused to the Fc portion of human IgG1) (human, UniProt P16410 36-161, FITC-conjugated in the FACS binding assays)
- T1 construct: extracellular domain; bought from R&D Systems; also called sCTLA-4-Ig; CTLA-4-Ig Fc; not shown: Fc portion of human IgG1
- T1 sequence (P16410 36-161): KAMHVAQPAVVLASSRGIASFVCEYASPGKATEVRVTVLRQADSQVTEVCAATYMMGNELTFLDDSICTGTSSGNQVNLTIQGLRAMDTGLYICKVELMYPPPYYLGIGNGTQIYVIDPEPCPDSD
- TEST_PROTOCOL: competitive FACS on transfected cells, FITC-sCTLA-4-Ig with biotin-sCD28-Ig; grade 0-2 of CTLA-4/CD28 ratio vs WT hB7-1
OBSERVED_PROPERTY: Binding Score
Give bare numbers.

Example entries and their recorded answers appear below.
| BINDER | Binding Score |
| --- | --- |
| Round 2 CTLA4BP 2x3-h2 (ligand) VIHVTKEVKEVATLSCGHNVSVEELAQTRIYWQKEKKMVLTMMSGDMNIWPEYKNRTIFDITNNLSIVILALRPSDEGTYECVVLKYEKDAFKREHLAEVMLSVKADFPTPSISDFEIPPSNIRRIICSTPGGFPEPRLAWMEDGEELNAISTTVSQDPGTELYAVSSKLDFNMTTNHSFMCLIKYGHLRVNQTFNWNTTKQEHFPDNLLPSWAITLISVKGIFVICCLTYCFAPRWRERKSNERLRRESVRPV | 0 |
| Round 2 CTLA4BP 5x2-b7 (ligand) VIHVTKEVKEVATLSCGHNVSVEELAQTRIHWQKEKKMVLTMMSGDMNIWPEYKNRTIFDITNNLSIVILALRPSDEGTYECVVLKYEKDAFKREHLAEVTLSVKADFPTPSITDFEIPPSNIRRIICSTSGGFPEPHLSWLENGEELNAINTTVSQDPGTELYTVSSKLDFNMTANHSFVCLIKYGHLRVNQTFNWNTPKQEHFPDNLLPSWAITLISANGIFVICCLTYCFAPRCRERRRNERLRRESVRPV | 1 |
| Round 1 (R1) CTLA4BP-5 (ligand, also called R1-5) VIHVTKEVKEVATLSCGHNVSVEELAQTRIHWQKEKKMVLTMMSGDMNIWPEYKNRTIFDITNNLSIVILALRPSDEGTYECVVLKYEKDAFKREHLAEVTLSVKADFPTPSISDFEIPPSNIRRIICSTSGGFPEPHLSWLENGEELNAINTTVSQDPGTELYTVSSKLDFNMTTNHSFMCLIKYGHLRVNQTFNWNTPKQEHFPDNLLPSWAITLISVNGIFVICCLTYCFAPRCRERRRNERLRRESVRPV | 2 |
| Round 2 CTLA4BP 5x2-h11 (ligand) VIHVTKKVKEVATLSCGHNVSVEELAQTRIYWQKGKKMVLTMMSGDMNIWPECKNRTIFDITNNLSIVILALRPSDEGTYECAVLKYEKDAFKREHLAEVTLSVKADFPTPSISDFEIPTSNIRRIICSTSGGFPEPHLFWLENGEELNAINTTASQDPETELYAVSSKLDFNMTTNHSFMCLIKYGHLRVNQTFNWNTPKQEHFPDNLLPSWAITLISVNGIFVICCLTYCFAPRCRERKSNERLRRESVRPV | 1 |
| Round 2 CTLA4BP-5x2-11d (ligand) VIHVTKEVKEVATLSCGHNVSVEELAQTRIHWQKEKKMVLTMMSGDMNIWPEYKNRTIFDITNNLSIVILALRPSDEGTYECVVLKYEKDAFKREHLAEVMLSVKADFPTPSITDFEIPPSNIRRIICSTSGGFPEPHLFWLENGEELNAINTTVSQDPETELYTVSSKLDFNMTTDRSFVCLIKYGHLRVNQTFNWNTPKQEHFPDNLLPSWAITLISANGIFVICCLTYCFAPRCRERKSNETLRRESVRPV | 2 |

Reported Binding Score ( Round 2 CTLA4BP 5x2-d7 (ligand) VIHMTKEVKEVATLSCGLNVSVEELAQTRIHWQKEKKMVLTMMSGDMNIWPEYKNRTIFDITNNLSIVILALRPSDEGTYECVVLKYEKDAFKREHLAEVMLSVKADFPTPSISDFEIPPSNIRRIICSTSGGFPEPHLSWLENGEELNAINTTVSQDPETGLYTVSSKLDFNMTTNHSFMCLIKYGHLRVNQTFNWNTPKQEHFPDNLLPSWAITLISVNGIFVICCLTYCFAPRCRERRRNERLRRESVRPV ) = 1
